test system: P. falciparum stage V gametocytes; design: BacTiter-Glo ATP luminescence viability of purified stage V gametocytes in 384-well plates, per cent inhibition versus DMSO; settings: 48 h, 5 µM; inhibitor
The whole screen tested about 13,000 compounds, of which about 3,200 (25%) showed an effect of 50% or more. Some of the results follow.
READOUT NAME: % Inhibition
Entry format: amount then unit.

MOLECULE | TEST SYSTEM | % Inhibition
FC(F)(F)c1ccc2[nH]c(-c3ccc(-c4ccc(CN5CCN(c6ccncc6)CC5)cc4)s3)nc2c1.O=C(O)C(F)(F)F | P. falciparum stage V gametocytes | -8.718%
c1ccc(-c2cc(NCCCCCCCCNc3cc(-c4ccccc4)nc4ccccc34)c3ccccc3n2)cc1 | P. falciparum stage V gametocytes | 96.95%
Cc1nn(CC(C)C)c2sc(C(=O)Nc3nc(-c4ccccn4)cs3)cc12 | P. falciparum stage V gametocytes | 62.82%

Task item: Tell me measured % Inhibition for O=C1C2C3SC(c4c3ccc3ccccc43)C2C(=O)N1c1ccccc1 (centres unmarked) please.
Reply: -5.395%

Task item: Indicate the recorded % Inhibition value for this molecule: `c1ccc(-c2cc(NCc3cccc4ccccc34)c3[nH]ncc3n2)cc1`
Reply: 76.18%

Task item: Given `Cc1ccccc1C1CCN(c2ncc(C(=O)Nc3ccccc3)cc2Cl)CC1` , respond with its % Inhibition.
Reply: -30.75%

Task item: Please list % Inhibition recorded for the molecule `COc1ccc2nccc([C@@H](O)CN3CCC(NC(=O)/C=C/c4ccnc5ccccc45)CC3)c2c1`
Reply: 15.04%

Task item: Using the record for `CCc1cccc(-c2cc(=N)n(C)c3nc(N)[nH]c(=O)c23)c1` , state its measured % Inhibition.
Reply: -30.45%

Reference source: paper PMC4552634
